B1: KCNG1 (parent)
chain: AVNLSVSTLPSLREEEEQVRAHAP

# Variants of: B1
# runDescription: protein stability index of a GFP-peptide fusion (GPS, HEK-293T) (PSI 1-6); higher = more stable;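 note: lentivirally expressed fusions sorted by FACS into six bins by GFP to DsRed ratio, PSI derived from sequencing read proportions per bin multiplied by bin number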
# conditionDescription: c terminus: a fixed tail appended
If the reported protein stability index equals or exceeds 5, assign label 1. If not, assign label 0.

Some solved entries appear below for comparison.
[[record]]
sequencestring = "AVNLSNSTLPSLREEEEQVRAHAP"
labelvalue = "label 1"

[[record]]
sequencestring = "AVNLSVSTLPSLREEEEQVRYHAP"
labelvalue = "label 0"

[[record]]
sequencestring = "LVNLSVSTLPSLREEEEQVRAHAP"
labelvalue = "label 0"

[[record]]
sequencestring = "AVNLSVSTLPMLREEEEQVRAHAP"
labelvalue = "label 0"

[[record]]
sequencestring = "AVNLSVSFLPSLREEEEQVRAHAP"
labelvalue = "label 0"


For this variant, is measured protein stability index 5 or higher? AVNLSVSTLPTLREEEEQVRAHAP label 0

Try the variant AVRLSVSTLPSLREEEEQVRAHAP label 0

Repeat with AVNLSVSTLPGLREEEEQVRAHAP label 0

Entry AVQLSVSTLPSLREEEEQVRAHAP please label 0

Same for AVKLSVSTLPSLREEEEQVRAHAP label 0

What do you get for AVNLSVSTLPSLREEEEQVRAEAP ? label 1

Please give the result for ASNLSVSTLPSLREEEEQVRAHAP too. label 1

Lookup ATNLSVSTLPSLREEEEQVRAHAP label 1

And then AVNLSVSTVPSLREEEEQVRAHAP , what is it? label 0
